Here we list molecules with their recorded IC50 when tested on PI4KIIIA (Homo sapiens (Human)).
Sequence (P42356 whole entry): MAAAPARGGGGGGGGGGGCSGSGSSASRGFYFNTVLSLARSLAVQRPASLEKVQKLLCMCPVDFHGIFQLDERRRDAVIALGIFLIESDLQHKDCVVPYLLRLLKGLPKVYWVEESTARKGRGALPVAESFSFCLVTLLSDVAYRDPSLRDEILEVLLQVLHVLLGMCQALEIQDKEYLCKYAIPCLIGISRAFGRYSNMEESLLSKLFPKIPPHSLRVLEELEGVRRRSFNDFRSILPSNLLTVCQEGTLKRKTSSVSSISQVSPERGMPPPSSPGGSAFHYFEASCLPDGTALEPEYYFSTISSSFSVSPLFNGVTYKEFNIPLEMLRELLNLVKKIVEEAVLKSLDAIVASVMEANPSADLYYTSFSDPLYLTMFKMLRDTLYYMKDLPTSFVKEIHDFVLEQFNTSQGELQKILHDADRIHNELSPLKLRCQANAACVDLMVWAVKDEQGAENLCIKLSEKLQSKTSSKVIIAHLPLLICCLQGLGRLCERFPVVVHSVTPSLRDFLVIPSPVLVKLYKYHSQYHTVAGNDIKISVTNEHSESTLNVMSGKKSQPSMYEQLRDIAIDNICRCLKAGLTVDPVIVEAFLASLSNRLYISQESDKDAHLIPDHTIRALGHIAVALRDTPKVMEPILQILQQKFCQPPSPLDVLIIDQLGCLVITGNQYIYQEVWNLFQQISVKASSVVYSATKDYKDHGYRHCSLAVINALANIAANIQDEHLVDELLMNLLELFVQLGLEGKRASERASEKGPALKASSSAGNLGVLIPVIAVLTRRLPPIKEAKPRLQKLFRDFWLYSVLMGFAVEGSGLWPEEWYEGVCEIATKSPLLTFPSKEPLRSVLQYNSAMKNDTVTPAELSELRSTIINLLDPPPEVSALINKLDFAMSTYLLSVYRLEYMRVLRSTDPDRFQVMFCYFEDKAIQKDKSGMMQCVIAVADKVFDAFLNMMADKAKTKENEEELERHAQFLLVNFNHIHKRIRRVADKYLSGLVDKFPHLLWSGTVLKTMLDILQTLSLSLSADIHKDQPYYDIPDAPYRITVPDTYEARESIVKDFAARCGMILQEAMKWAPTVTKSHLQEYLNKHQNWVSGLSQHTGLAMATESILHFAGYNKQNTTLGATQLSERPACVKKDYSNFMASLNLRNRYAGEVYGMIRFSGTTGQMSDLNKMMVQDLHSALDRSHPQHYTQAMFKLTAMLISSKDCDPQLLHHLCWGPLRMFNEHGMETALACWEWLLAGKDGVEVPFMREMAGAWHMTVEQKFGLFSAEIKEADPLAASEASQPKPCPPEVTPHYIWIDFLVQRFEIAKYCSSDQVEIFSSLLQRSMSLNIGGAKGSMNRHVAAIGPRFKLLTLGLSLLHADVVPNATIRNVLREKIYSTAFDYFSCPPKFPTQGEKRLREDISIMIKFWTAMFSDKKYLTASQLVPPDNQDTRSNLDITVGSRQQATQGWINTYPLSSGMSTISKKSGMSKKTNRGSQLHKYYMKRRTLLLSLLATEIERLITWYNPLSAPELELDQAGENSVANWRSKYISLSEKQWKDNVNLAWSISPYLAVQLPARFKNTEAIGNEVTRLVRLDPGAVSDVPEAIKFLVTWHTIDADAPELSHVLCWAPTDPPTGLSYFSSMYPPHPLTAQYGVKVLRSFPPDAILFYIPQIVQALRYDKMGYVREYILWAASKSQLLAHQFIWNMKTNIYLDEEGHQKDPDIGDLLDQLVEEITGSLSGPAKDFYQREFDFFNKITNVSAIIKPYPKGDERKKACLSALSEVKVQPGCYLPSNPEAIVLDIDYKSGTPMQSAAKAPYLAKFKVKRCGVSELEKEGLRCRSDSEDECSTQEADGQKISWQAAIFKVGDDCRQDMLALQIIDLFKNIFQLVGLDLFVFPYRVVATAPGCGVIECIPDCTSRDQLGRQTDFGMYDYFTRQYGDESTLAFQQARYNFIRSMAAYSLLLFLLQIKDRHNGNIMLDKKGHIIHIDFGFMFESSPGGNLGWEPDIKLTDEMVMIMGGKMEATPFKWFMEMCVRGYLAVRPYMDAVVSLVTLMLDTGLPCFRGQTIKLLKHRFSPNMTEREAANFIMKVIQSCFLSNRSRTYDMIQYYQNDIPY

Consider the worked cases shown below.
COc1ncc(-c2sc(NC(=O)CC3CCOCC3)nc2C)cc1S(=O)(=O)Nc1cccc(C(=O)O)c1; < 100 nM
COc1ncc(-c2sc(NC(=O)CC3CCOCC3)nc2C)cc1S(=O)(=O)Nc1ccc(O)cc1; < 100 nM
COc1ccc(-c2sc(NCC3CCCCC3)nc2C)cc1S(=O)(=O)NC1CC1; > 10000 nM

# input for lookup
// query Recorded IC50 for COc1ccc(-c2sc(NC(C)C)nc2C)cc1S(=O)(=O)N[C@H]1CC[C@H](O)CC1 with PI4KIIIA (Homo sapiens (Human)), please?
// result 1000 to 10000 nM

---

Quick list: IC50 per entry.
Target: UniProt:P48736
Sequence (P48736 whole entry): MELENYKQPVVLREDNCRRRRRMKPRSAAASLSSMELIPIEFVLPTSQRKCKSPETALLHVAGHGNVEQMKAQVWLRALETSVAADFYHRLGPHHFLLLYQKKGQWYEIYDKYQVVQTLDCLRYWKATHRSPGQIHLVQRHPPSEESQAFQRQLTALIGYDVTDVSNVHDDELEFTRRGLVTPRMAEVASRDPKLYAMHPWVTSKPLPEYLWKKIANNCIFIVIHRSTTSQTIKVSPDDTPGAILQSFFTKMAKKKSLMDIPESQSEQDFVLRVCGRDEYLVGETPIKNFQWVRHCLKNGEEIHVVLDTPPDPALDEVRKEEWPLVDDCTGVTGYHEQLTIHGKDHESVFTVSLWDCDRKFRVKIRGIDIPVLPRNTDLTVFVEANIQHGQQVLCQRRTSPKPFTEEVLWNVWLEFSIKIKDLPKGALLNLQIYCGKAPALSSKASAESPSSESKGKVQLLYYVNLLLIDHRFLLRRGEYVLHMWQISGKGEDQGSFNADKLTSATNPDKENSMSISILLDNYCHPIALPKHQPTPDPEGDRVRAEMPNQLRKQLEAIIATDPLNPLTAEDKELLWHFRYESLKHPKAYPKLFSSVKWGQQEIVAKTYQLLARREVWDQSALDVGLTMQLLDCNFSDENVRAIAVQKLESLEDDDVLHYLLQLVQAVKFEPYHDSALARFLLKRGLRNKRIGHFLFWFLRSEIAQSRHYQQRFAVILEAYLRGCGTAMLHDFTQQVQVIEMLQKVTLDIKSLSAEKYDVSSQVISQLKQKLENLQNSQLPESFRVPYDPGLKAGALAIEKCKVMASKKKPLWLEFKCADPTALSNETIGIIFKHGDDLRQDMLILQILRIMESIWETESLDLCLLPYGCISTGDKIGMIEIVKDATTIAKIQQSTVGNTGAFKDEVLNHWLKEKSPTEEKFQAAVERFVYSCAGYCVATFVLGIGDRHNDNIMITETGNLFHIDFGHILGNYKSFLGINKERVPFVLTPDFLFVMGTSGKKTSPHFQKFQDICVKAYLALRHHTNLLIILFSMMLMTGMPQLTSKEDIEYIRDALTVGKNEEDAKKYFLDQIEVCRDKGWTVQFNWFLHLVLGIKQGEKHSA

Consider the worked cases shown below.
COc1ccc(-c2sc(N[C@H](C)CC3CCCCC3)nc2C)cc1S(=O)(=O)NC1CCNCC1 [Compound S-145]; > 10 µM
COc1ccc(-c2sc(NC(=O)CC3CCCC3)nc2C)cc1S(=O)(=O)Nc1ccc(O)cc1 [Compound S-1]; > 10 µM

// query Please give the measured IC50 for this molecule: COc1ccc(-c2sc(NC(C)(C)C)nc2C)cc1S(=O)(=O)N[C@H]1CC[C@H](O)CC1 [Compound S-216]
// result > 10 µM

---

pIC50: −log10 of the molar value.
Here we list compounds with their recorded pIC50 when tested on PI3KC2G (Homo sapiens (Human), UniProt O75747).

COc1ccc(-c2sc(NC(C)(C)C)nc2C)cc1S(=O)(=O)N[C@H]1CC[C@H](O)CC1; 5.00 to 6.00

// query Recorded pIC50 for COc1ccc(-c2sc(NC(=O)CC3CCOCC3)nc2C)cc1S(=O)(=O)Nc1ccc(O)cc1 with PI3KC2G (Homo sapiens (Human), UniProt O75747), please?
// result 5.00 to 6.00

// query Recorded pIC50 for COc1ccc(-c2sc(N[C@H](C)C3CCCCC3)nc2C)cc1S(=O)(=O)N[C@H]1CC[C@H](O)CC1 with PI3KC2G (Homo sapiens (Human), UniProt O75747), please?
// result < 5.00

// query Recorded pIC50 for COc1ccc(-c2sc(NCC3CCCCC3)nc2C)cc1S(=O)(=O)NC1CC1 with PI3KC2G (Homo sapiens (Human), UniProt O75747), please?
// result < 5.00

// query Recorded pIC50 for COc1ccc(-c2sc(NC(=O)CC3CCOCC3)nc2C)cc1S(=O)(=O)Nc1ccc(O)cc1C with PI3KC2G (Homo sapiens (Human), UniProt O75747), please?
// result 6.00 to 7.00

// query Recorded pIC50 for COc1ncc(-c2sc(NC(=O)CC3CCOCC3)nc2C)cc1S(=O)(=O)Nc1cccc(O)c1 with PI3KC2G (Homo sapiens (Human), UniProt O75747), please?
// result 5.00 to 6.00

// query Recorded pIC50 for COc1ccc(-c2sc(NC3CCCCC3)nc2C)cc1S(=O)(=O)NC1CCCC1 with PI3KC2G (Homo sapiens (Human), UniProt O75747), please?
// result < 5.00

// query Recorded pIC50 for COc1ccc(-c2sc(NC(=O)CC3CCCC3)nc2C)cc1S(=O)(=O)Nc1ccc(O)cc1 with PI3KC2G (Homo sapiens (Human), UniProt O75747), please?
// result > 7.00

// query Recorded pIC50 for COc1ccc(-c2sc(NC(=O)CCC3CCCC3)nc2C)cc1S(=O)(=O)NC1CCNCC1 with PI3KC2G (Homo sapiens (Human), UniProt O75747), please?
// result 6.00 to 7.00

// query Recorded pIC50 for COc1ncc(-c2sc(NC(=O)CC3CCOCC3)nc2C)cc1S(=O)(=O)Nc1ccc(O)cc1 with PI3KC2G (Homo sapiens (Human), UniProt O75747), please?
// result 6.00 to 7.00

// query Recorded pIC50 for COc1ccc(-c2sc(NC3CCCCC3)nc2C)cc1S(=O)(=O)NC1CCCCCC1 with PI3KC2G (Homo sapiens (Human), UniProt O75747), please?
// result < 5.00

---

Here we list compounds with their recorded pIC50 when tested on PI4KIIIB (Bos taurus (Bovine)).
Sequence (O02810 whole entry): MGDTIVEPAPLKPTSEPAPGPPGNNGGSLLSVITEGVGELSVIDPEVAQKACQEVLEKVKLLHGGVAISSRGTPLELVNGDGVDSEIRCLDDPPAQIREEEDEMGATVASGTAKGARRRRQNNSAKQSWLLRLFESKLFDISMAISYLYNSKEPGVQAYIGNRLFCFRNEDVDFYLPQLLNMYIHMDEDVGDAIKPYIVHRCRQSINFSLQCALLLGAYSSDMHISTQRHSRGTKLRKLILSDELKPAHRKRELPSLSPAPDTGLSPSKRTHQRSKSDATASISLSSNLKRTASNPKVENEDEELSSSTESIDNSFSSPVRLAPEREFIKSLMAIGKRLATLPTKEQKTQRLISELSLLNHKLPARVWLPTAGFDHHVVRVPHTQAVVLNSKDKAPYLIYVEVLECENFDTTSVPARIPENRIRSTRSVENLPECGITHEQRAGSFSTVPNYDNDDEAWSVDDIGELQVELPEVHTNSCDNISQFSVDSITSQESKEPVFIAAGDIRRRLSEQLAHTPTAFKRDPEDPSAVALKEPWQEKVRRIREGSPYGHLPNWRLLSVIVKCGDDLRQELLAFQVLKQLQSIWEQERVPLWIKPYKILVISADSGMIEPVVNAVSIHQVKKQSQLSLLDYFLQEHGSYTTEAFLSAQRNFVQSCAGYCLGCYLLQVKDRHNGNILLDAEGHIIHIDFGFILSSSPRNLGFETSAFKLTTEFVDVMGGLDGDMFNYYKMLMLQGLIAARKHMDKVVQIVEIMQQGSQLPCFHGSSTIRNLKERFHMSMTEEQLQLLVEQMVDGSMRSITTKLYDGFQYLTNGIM
pIC50: −log10 of the molar value.

Consider the worked cases shown below.
COc1ccc(-c2sc(N[C@H](C)C3CCCCC3)nc2C)cc1S(=O)(=O)N[C@H]1CCNC1; > 7.00
COc1ccc(-c2sc(NCC3CCCCC3)nc2C)cc1S(=O)(=O)NC1CCN(C2CC2)CC1; > 7.00
COc1ncc(-c2sc(NC(=O)CC3CCOCC3)nc2C)cc1S(=O)(=O)N[C@H]1CC[C@@H](O)CC1; > 7.00
COc1ccc(-c2sc(NC(=O)C3CCCC3)nc2C)cc1S(=O)(=O)Nc1ccc(CO)cc1; > 7.00
COc1ccc(-c2sc(NC(=O)Cc3ccccc3)nc2C)cc1S(=O)(=O)Nc1ccc(O)cc1; > 7.00

// query Please give the measured pIC50 for this compound: COc1ccc(-c2sc(N[C@@H](C)C3CCCCC3)nc2C)cc1S(=O)(=O)N[C@H]1CC[C@@H](O)CC1
// result 5.00 to 6.00

// query Please give the measured pIC50 for this compound: COc1ncc(-c2sc(NC(=O)CC3CCOCC3)nc2C)cc1S(=O)(=O)Nc1ccc(O)cc1
// result > 7.00

---

Here we list compounds with their recorded IC50 when tested on PI4KIIIA (Homo sapiens (Human)).

COc1ccc(-c2sc(N[C@H](C)CC3CCCCC3)nc2C)cc1S(=O)(=O)NC1CCNCC1 [Compound S-145]; 100 to 1000 nM
COc1ncc(-c2sc(NC(=O)CC3CCOCC3)nc2C)cc1S(=O)(=O)Nc1cccc(O)c1 [Compound S-259]; < 100 nM
COc1ccc(-c2sc(NC(=O)CC3CCOCC3)nc2C)cc1S(=O)(=O)Nc1cc(C)cc(O)c1 [Compound S-169]; < 100 nM
COc1ccc(-c2sc(NC(=O)CC3CCCC3)nc2C)cc1S(=O)(=O)Nc1ccc(C)nc1 [Compound S-100]; > 10000 nM
COc1ccc(-c2sc(NCC3CCCCC3)nc2C)cc1S(=O)(=O)NCC1CCCCC1 [Compound S-128]; > 10000 nM
COc1ccc(-c2sc(NC3CCCCCC3)nc2C)cc1S(=O)(=O)Nc1c(C)cccc1C [Compound S-98]; > 10000 nM
COc1ncc(-c2sc(NC(=O)CC3CCOCC3)nc2C)cc1S(=O)(=O)N[C@H]1CC[C@@H](O)CC1 [Compound S-262]; < 100 nM

# input for lookup
// query Please give the measured IC50 for this compound: COc1ccc(-c2sc(NC3CCCCC3)nc2C)cc1S(=O)(=O)NC1CCCC1 [Compound S-129]
// result > 10000 nM

---

Quick list: IC50 per entry.
Molecular target: PI4KIIIA (Homo sapiens (Human))
Assay: PI4KIIIα kinase assay (immunoprecipitated HA-tagged enzyme, [γ-32P]-ATP)
Assay type: biochemical
Details: kinase activity

Consider the worked cases shown below.
COc1ccc(-c2sc(NC3CCCCC3)nc2C)cc1S(=O)(=O)NC1CCCCCC1 [Compound S-131]; > 10000 nM
COc1ncc(-c2sc(NC(=O)CC3CCOCC3)nc2C)cc1S(=O)(=O)Nc1ccc(F)cc1F [Compound S-260]; < 100 nM
COc1ccc(-c2sc(NC(=O)CC3CCOCC3)nc2C)cc1S(=O)(=O)Nc1ccc(F)cc1 [Compound S-170]; < 100 nM

# input for lookup
// query Please give the measured IC50 for this molecule: COc1ccc(-c2sc(N[C@H](C)C3CCCCC3)nc2C)cc1S(=O)(=O)NC1CCNCC1 [Compound S-147]
// result 100 to 1000 nM

---

pIC50: −log10 of the molar value.
Here we list compounds with their recorded pIC50 when tested on UniProt:O02810.

COc1ccc(-c2sc(N[C@H](C)C3CCCCC3)nc2C)cc1S(=O)(=O)N[C@H]1CC[C@@H](O)CC1; 6.00 to 7.00
COc1ccc(-c2sc(NC(=O)CC3CCCC3)nc2C)cc1S(=O)(=O)N1CC[C@@H](O)C1; > 7.00
COc1ccc(-c2sc(NC(=O)CC3CCCC3)nc2C)cc1S(=O)(=O)Nc1ccc(C)nc1; 6.00 to 7.00
COc1ccc(-c2sc(N[C@H](C)C3CCCCC3)nc2C)cc1S(=O)(=O)NC1CCNCC1; > 7.00
COc1ccc(-c2sc(NC3CCCCC3)nc2C)cc1S(=O)(=O)N[C@H]1CC[C@H](O)CC1; > 7.00

// query Please give the measured pIC50 for this compound: COc1ccc(-c2sc(NCC3CCCCC3)nc2C)cc1S(=O)(=O)NC1CCN(C2CCCC2)CC1
// result > 7.00

// query Please give the measured pIC50 for this compound: COc1ncc(-c2sc(NC(=O)CC3CCOCC3)nc2C)cc1S(=O)(=O)Nc1ccc(F)cc1F [Compound S-258]
// result 5.00 to 6.00
